experiment: protein stability index of a GFP-peptide fusion (yeast GPS) (PSI 1-4); higher = more stable; sorted into four equal gates, so the index is relative within each strain; settings: ubr1∆
So basically, the class depends on measured protein stability index, and the ranges are I = under 2, II = from 2 up to 3, III = 3 and over

sequence	group
EKLKVNMEKEKDRIIDE [YIL149C/MLP2]	II
STSVGWKYEDVVAKLED [RPL16B]	III

Q: Category of KRIKPNTEITQKSSKEN [ECM29] , please.
A: III

Q: Category of RYPMNLLEFIIDEIAYL [ECM29] , please.
A: II

Q: Category of EGTSISVHLIECYKQLF [YCS4] , please.
A: III

----------
experiment: protein stability index of a GFP-peptide fusion (yeast GPS) (PSI 1-4); higher = more stable; sorted into four equal gates, so the index is relative within each strain; details: doa10∆
Entry flag: 1.0 if protein stability index reaches 3; 0.0 if it does not.

Study these solved cases before continuing.
sequence	group
DLKKKLNSLKDERSQGE [SMC4]	1.0
QDGGVTPYSNESGLVNA [RPO21]	0.0
LSEPLIKIGIRVMKSLS [YCG1]	0.0
KKNDMNTSAKNKNGENK [SIR4]	0.0
GVPDDKWEQTYKKPTGG [FAS1]	1.0

Q: Given the entry NEHSTSYTFRSEKGLLS [FAS1] , answer whether its protein stability index meets or surpasses 3.
A: 0.0

Q: Given the entry LVQLPKSAMDTFKSVSK [POP3] , answer whether its protein stability index meets or surpasses 3.
A: 0.0

Q: Given the entry SCSFFAKLSDTLIIDQV [NUT1] , answer whether its protein stability index meets or surpasses 3.
A: 0.0

Q: Given the entry TTKLAFLVEYEGQENNY [SIR4] , answer whether its protein stability index meets or surpasses 3.
A: 0.0

Q: Given the entry SLRSNVVVAETSPEKKD [YAR002W/NUP60] , answer whether its protein stability index meets or surpasses 3.
A: 0.0

Q: Given the entry DPKTSLRIVKPTVSLTI [RPC82] , answer whether its protein stability index meets or surpasses 3.
A: 0.0

Q: Given the entry FAKFIHHIHHFEKKELQ [IRR1] , answer whether its protein stability index meets or surpasses 3.
A: 0.0

Q: Given the entry RNVTIQLENADTGTLDT [RPN2] , answer whether its protein stability index meets or surpasses 3.
A: 1.0

----------
test: protein stability index of a GFP-peptide fusion (yeast GPS) (PSI 1-4); higher = more stable; sorted into four equal gates, so the index is relative within each strain; conditions: ubr1∆
Entry flag: met if protein stability index reaches 3; not met if it does not.

Study these solved cases before continuing.
sequence	group
LGPGIYCDPNTQEIRPV [RRP40]	not met
TFEIPQAHEIVIPSYSK [SWI3]	not met
DLQYLGEFSGKNFSPTK [RRP6]	met
NVNNNNIGQQQVKKPRK [SWI1]	met
GLIMLNLQPASVINNYL [NUT1]	not met
TLSYDDISAAIVHSSDG [DLS1]	not met
QFTSSLFKALKVILNER [RGR1]	not met
EFISIYSNSHQMAVHIA [RET1]	met
TEDRYNEYVAKVSAREK [FAS2]	met
WAGKRLWDQDIAIAGTG [COR1]	not met

Q: Given the entry TLLREVVFTRLVQRCWQ [CSN12] , answer whether its protein stability index meets or surpasses 3.
A: not met

Q: Given the entry ERAKNVNGLLQVLMDIN [GAL11] , answer whether its protein stability index meets or surpasses 3.
A: not met

----------
Measured protein stability index by item
assay: protein stability index of a GFP-peptide fusion (yeast GPS) (PSI 1-4); higher = more stable; sorted into four equal gates, so the index is relative within each strain; details: pdr5∆
Enter the number alone.

Sample answers from the record:
sequence	protein stability index
SYFKNSVIVKFHSEPDR [LIN1]	2.59
SLSIEENIPVALCKNRK [POP1]	2.98
SFCGFLLYYIPSLELSA [YJR042W/NUP85]	1.58
ICLMTLIETVFVKNIRM [RPN9]	1.3
DLQYLGEFSGKNFSPTK [RRP6]	3.25

Q: Using the record for PSPYKTTVYRYSAAKKI [YAR002W/NUP60] , state its measured protein stability index.
A: 1.98

Q: Using the record for NNTNNANSSITPAFGSN [YJL041W/NSP1] , state its measured protein stability index.
A: 3.06

Q: Using the record for SMMSDGIEHFDIPPPAI [RPO31] , state its measured protein stability index.
A: 1.81

Q: Using the record for IDMDKLNTVLIADLDTE [RRP43] , state its measured protein stability index.
A: 3.02

Q: Using the record for KNEKLILEESLNAIILK [SMC3] , state its measured protein stability index.
A: 2.64

Q: Using the record for SMSEEFKYVSVRYEEKR [BRR2] , state its measured protein stability index.
A: 3.38

Q: Using the record for KINTRGAEDPKVLINDQ [SWI1] , state its measured protein stability index.
A: 3.34

Q: Using the record for GSSRIIASDGSECIVSI [RRP42] , state its measured protein stability index.
A: 3.27

Q: Using the record for QTKDSVKEIVLPLFYDL [IRR1] , state its measured protein stability index.
A: 2.4

----------
experiment: protein stability index of a GFP-peptide fusion (yeast GPS) (PSI 1-4); higher = more stable; sorted into four equal gates, so the index is relative within each strain; conditions: doa10∆
Measured protein stability index by item

Sample answers from the record:
sequence	readout	result
QKYNQIQKQIETIQADL [SMC2]	protein stability index	2.68
LDENKWYKFNDDKVSVV [UBP6]	protein stability index	2.87
LKLLAKSHVLLATPVQF [BRR2]	protein stability index	1.89
VDKNFDKLELYVLRNVL [MTW1]	protein stability index	3.01
LVVLTDVVERLHKNFES [RGR1]	protein stability index	2.49
VDPLKSLEDKILRMGAF [RRI1]	protein stability index	3.19

Continue with the next sequence.
Q: Using the record for LFGNKPTTTTGGLFGNS [YGR119C/NUP57] , state its measured protein stability index.
A: 2.94

----------
Measured protein stability index by item
test: protein stability index of a GFP-peptide fusion (yeast GPS) (PSI 1-4); higher = more stable; sorted into four equal gates, so the index is relative within each strain; conditions: doa10∆

Sample answers from the record:
sequence	protein stability index
PSKGQSLSKISQAFDIV [RPP1]	3.25
YGIPLEFYNEMHRPVHF [PRP8]	1.85
PDGTLIASAGKDGEIML [ASC1]	3.06
VDAGIALNSMCASIPIA [RRP46]	1.65
KSSIEKDPSPEILVLYN [SIN4]	2.91
ELGISLEHPYGKEVEVL [SNU114]	2.29
FLQDKVQIKDVNDRYQI [CSI1]	3.28
LEKFLQGRDTSKLPDPE [SRP72]	2.76
DKSLDSSNASFNNQGKL [MED1]	2.98
YNTSILEFRWLTSSKSV [SIN4]	1.79

Q: Using the record for ILRNGIDYLQRNDKTLE [POP1] , state its measured protein stability index.
A: 3.19

Q: Using the record for DKLSVSEISDGKLKRCS [SIN4] , state its measured protein stability index.
A: 3.27

Q: Using the record for GITYRREDMPFTAEGIV [RPB2] , state its measured protein stability index.
A: 2.52

Q: Using the record for HIRKASSKKSKRLDKVG [LRP1] , state its measured protein stability index.
A: 3.21

Q: Using the record for VFLLLQAYFSRLELPVD [BRR2] , state its measured protein stability index.
A: 1.59

Q: Using the record for TKGMITNLQRNVDRLYK [NUT2] , state its measured protein stability index.
A: 3.47

Q: Using the record for QFTSSLFKALKVILNER [RGR1] , state its measured protein stability index.
A: 2.03

Q: Using the record for LKERAKNISSQLDSKLM [YGR119C/NUP57] , state its measured protein stability index.
A: 1.2

Q: Using the record for ASVVPSASSLVITALKE [RPL12A] , state its measured protein stability index.
A: 2.09

Q: Using the record for QVATKYASLKLPNQIPG [YMR129W/POM152] , state its measured protein stability index.
A: 1.69

Q: Using the record for IDNLKDTLKENATEVQK [ITC1] , state its measured protein stability index.
A: 2.66

Q: Using the record for QLSQDEHSQVEQTCVKL [SRP72] , state its measured protein stability index.
A: 3.17

Q: Using the record for TYKYFEVILVDPQHKAI [RPL15A] , state its measured protein stability index.
A: 2.32

Q: Using the record for IMDNFLERTAIELKTDW [RPN1] , state its measured protein stability index.
A: 3

Q: Using the record for QQLRTWKRQISYFLKLL [SRB8] , state its measured protein stability index.
A: 1.63

Q: Using the record for QSRLFINELVLENFKSY [SMC4] , state its measured protein stability index.
A: 1.75

Q: Using the record for LNTLFNPVTLNEDSKAF [NUT1] , state its measured protein stability index.
A: 2.57

Q: Using the record for MPNDNKTPNRSSTPKFT [SIR4] , state its measured protein stability index.
A: 2.66

Q: Using the record for ETGNFSWASEGISKKTR [RPS8A] , state its measured protein stability index.
A: 3.15

Q: Using the record for LSKIKFPESIWKDFTVE [YCG1] , state its measured protein stability index.
A: 2.59

Q: Using the record for SNMLGSNEDVMMTGAEQ [RPB3] , state its measured protein stability index.
A: 3.47

Q: Using the record for TEENKANTNSVTSMEAA [YIL149C/MLP2] , state its measured protein stability index.
A: 3.46
